// data source = patent US11352350B2

- System: OCI-LY10
- Assay overview: CTG Cell Viability Assay - OCI-LY10
- Type: cell-based, human
- Assay conditions: Homo sapiens, OCI-Ly10, 96 h, OCI-LY10, 4 days; read-out: CTG Cell Viability Assay - OCI-LY10: Average external-IC50
- Experimental: Compound-mediated viability effect on OCI-LY10 or TMD8 was quantitatively determined using the CellTiter-Glo® Luminescent Cell Viability Assay kit from Promega (Catalog number G7570) following manufacturer's recommended procedures. […] The data was then analyzed by software Prism 7.0 from GraphPad and the dose response curves were fit using a three-parameter logistic equation to calculate IC50.
Would you kindly list IC50 for each of these molecules?

Sample Cn1c(=O)n(C2CCC(=O)NC2=O)c2cccc(CCCOC3CCN(C[C@H]4CC[C@H](n5cc(NC(=O)c6cnn7ccc(N8CCCOCC8)nc67)c(C(F)F)n5)CC4)CC3)c21 (stereo partly shown) — what was its IC50?
> 1000 nM

Lookup CC[C@@H]1[C@H](F)C(=O)N[C@@H]1COc1ncc(C#C[C@H]2CC[C@H](CN3CCC(OCCCc4cccc5c4n(C)c(=O)n5C4CCC(=O)NC4=O)CC3)CC2)c2cc(C(N)=O)c(OC)cc12 (stereo partly shown)
> 1000 nM

Lookup Cn1c(=O)n(C2CCC(=O)NC2=O)c2ccc(CN3CCC(CN4CCC(n5cc(NC(=O)c6coc(-c7ccnc(NCC8CC8)c7)n6)c(C(F)F)n5)CC4)CC3)cc21 (stereo not shown)
> 1000 nM

Lookup CC[C@@H]1[C@H](F)C(=O)N[C@@H]1COc1ncc(C#C[C@H]2CC[C@H](CN(C)CCCOCCCc3ccc4c(c3)n(C)c(=O)n4C3CCC(=O)NC3=O)CC2)c2cc(C(N)=O)c(OC)cc12 (stereo partly shown)
> 1000 nM

Lookup C[C@@H]1CN(c2ccn3ncc(C(=O)Nc4cn([C@H]5CC[C@H](CN6CCC(OCCCc7cccc8c7n(C)c(=O)n8C7CCC(=O)NC7=O)CC6)CC5)nc4C(F)F)c3n2)C[C@@H](C)O1 (stereo partly shown)
> 1000 nM

Lookup Cn1c(=O)n(C2CCC(=O)NC2=O)c2cccc(CCCOC3CCN(C[C@H]4CC[C@H](n5cc(NC(=O)c6cnn7ccc(N8C(=O)N[C@@H]9[C@H]8CCCC9(F)F)nc67)c(C(F)F)n5)CC4)CC3)c21 (stereo partly shown)
< 50 nM

Lookup O=C1CCC(N2C(=O)c3cccc(NCCC4CCN(C[C@H]5CC[C@H](n6cc(NC(=O)c7cnn8ccc(N9CCOCC9)nc78)c(C(F)F)n6)CC5)CC4)c3C2=O)C(=O)N1 (stereo partly shown)
< 50 nM

Lookup NC(=O)c1nn([C@H]2CC[C@@H](C(=O)NCCOCCOCCNc3cccc4c3C(=O)N(C3CCC(=O)NC3=O)C4=O)CC2)cc1NC(=O)c1coc(-c2ccnc(NCC(F)(F)F)c2)n1 (single isomer, unassigned)
100 to 500 nM

Lookup Cn1c(=O)n(C2CCC(=O)NC2=O)c2ccc(CCCOCCOCCOCCOCC(=O)N3CCN([C@H]4CC[C@H](Nc5ncnn6ccc(C7CCOCC7)c56)CC4)CC3)cc21 (stereo partly shown)
> 1000 nM

Lookup Cn1c(=O)n(C2CCC(=O)NC2=O)c2cccc(CN3CCC(CCN4CCC(n5cc(NC(=O)c6cnn7ccc(N8CCOCC8)nc67)c(C(F)F)n5)CC4)CC3)c21 (stereo not shown)
100 to 500 nM
